species: Homo sapiens; test: Selectivity ratio of IC50 for human NAv1.8 to IC50 for human Nav1.2
Measure Name: Ratio IC50

P. O=C(NCCc1ccc(Cl)cc1)c1cncc(-c2ccc(Cl)cc2)n1
Q. O=C(NCc1cccnc1N1CCOCC1)c1cncc(-c2ccc(OC(F)(F)F)cc2)n1
Which value of Ratio IC50 is greater, the one for P or the one for Q ? Pick one and reply with its label.
Q
(Q: 79, P: 53)

====

test: Cmax in rat at 3 mg/kg, po; assay type: ADME, organism-based; design: dose 3 mg/kg, route oral; details: in vivo
Measure Name: Cmax (ng/mL)
# unit: ng/mL | format: bare number

Return value of Cmax for input `O=C(NCc1cccnc1N1CCOCC1)c1cncc(-c2ccc(OC(F)(F)F)cc2)n1` , no commentary.
150

# credit: ChEMBL document CHEMBL1275385
